tgt: T1, 4H349-bN
T1 chain: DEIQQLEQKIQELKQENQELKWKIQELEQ
protocolDescription: two-hybrid library CCNG1;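 note: natural log of median RNA to DNA barcode read ratio; higher means stronger binding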
resultType: interaction score

As a guide, the following entries are already answered.
binder: DKNQQLEQENQELKQKIQELEWEIQELEQ [4H3297-bN]
interaction score: -2.11
--
binder: DEIQQLEQKIQELKQENQELKWKIQELEQ [4H349-bN]
interaction score: -1.89

(P) DKIQQLKQENQELKQEIQELEWKNQELKQ [4H2760-bN]
(Q) DKIQQLEQKNQELKQENQELEWKIQELKQ [4H2518-bN]
[ask] Between these two entries, P and Q , state which has the higher interaction score. Identify your selection by its label.
[reply] Q
(Q: -0.274, P: -1.63)

meta.source: paper PMC10397247
